For each record, write down the corresponding TGI.
Tested on: SK-MEL-5 melanoma
Test: NCI tumour cell line growth inhibition, 48 h

CCOC(=O)c1cn2c(n1)sc1cc(Cl)cc(Cl)c12; > 100 µM
Nc1ncnc2c1ncn2CC(O)CO (stereo unspecified); > 100 µM
CC(=O)OC(Cn1cncn1)(Cn1cncn1)c1ccc(Cl)cc1Cl; > 100 µM

Please state TGI for every compound in the list that follows.
1. COc1cc2ccc1OCc1cccc(n1)COc1ccc(cc1OC)C=Nc1ccc(cc1)N=C2
2. O=c1cc(-c2cc(O)c(O)c(-c3c(O)cc4oc(-c5ccc(O)c(O)c5)cc(=O)c4c3O)c2)oc2cc(O)cc(O)c12
3. C=CC(OCC)(OCC)OCC

Output:
["> 100 µM", "> 25 µM", "> 100 µM"]

Where do these numbers come from? They come from PubChem BioAssay (NCI).
